Biological target: DDR2 (Homo sapiens, UniProt Q16832)
Sequence (Q16832 22-855): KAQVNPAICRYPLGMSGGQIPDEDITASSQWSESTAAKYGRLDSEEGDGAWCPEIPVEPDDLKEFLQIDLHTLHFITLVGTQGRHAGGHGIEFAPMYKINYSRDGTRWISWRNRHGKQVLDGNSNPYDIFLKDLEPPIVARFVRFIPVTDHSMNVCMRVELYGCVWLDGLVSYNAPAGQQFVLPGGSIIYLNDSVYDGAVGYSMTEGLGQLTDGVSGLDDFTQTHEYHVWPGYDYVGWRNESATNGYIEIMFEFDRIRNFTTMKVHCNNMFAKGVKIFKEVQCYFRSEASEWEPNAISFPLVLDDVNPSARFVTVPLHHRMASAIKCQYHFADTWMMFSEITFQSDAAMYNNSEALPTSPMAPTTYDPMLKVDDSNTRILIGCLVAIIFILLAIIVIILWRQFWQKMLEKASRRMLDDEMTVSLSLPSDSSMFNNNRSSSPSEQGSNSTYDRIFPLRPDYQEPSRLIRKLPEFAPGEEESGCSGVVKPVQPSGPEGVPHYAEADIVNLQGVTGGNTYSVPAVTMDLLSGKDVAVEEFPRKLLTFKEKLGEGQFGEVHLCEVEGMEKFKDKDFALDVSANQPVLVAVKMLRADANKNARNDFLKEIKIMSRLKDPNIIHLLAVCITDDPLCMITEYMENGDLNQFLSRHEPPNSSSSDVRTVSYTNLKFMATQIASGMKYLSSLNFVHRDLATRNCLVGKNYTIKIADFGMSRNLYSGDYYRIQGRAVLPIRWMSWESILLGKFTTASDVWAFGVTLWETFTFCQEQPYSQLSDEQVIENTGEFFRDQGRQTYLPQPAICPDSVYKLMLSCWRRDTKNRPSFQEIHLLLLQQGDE
MEASURED_PROPERTY: IC50 (µM)

- CCN1CCN(Cc2ccc(NC(=O)Nc3ccc(C)c(Oc4ccc5c(c4)CC(=O)N5)c3)cc2C(F)(F)F)CC1: 0.785
- Cc1ccc(NC(=O)c2cc(N3CCN(CCO)CC3)cc(C(F)(F)F)c2)cc1Oc1ccc2c(c1)CC(=O)N2: 0.546
- CCN1CCN(Cc2ccc(C(=O)Nc3ccc(C)c(Oc4ccc5c(c4)CC(=O)N5)c3)cc2C(F)(F)F)CC1: 0.413

###

target: DDR1 (Homo sapiens); construct: purchased Invitrogen; test: LanthaScreen kinase activity assay (Invitrogen), DDR1; assay type: biochemical; details: LanthaScreen kinase activity assay; read-out: Enzymatic IC50 values DDR1
Sequence (Q08345 19-913): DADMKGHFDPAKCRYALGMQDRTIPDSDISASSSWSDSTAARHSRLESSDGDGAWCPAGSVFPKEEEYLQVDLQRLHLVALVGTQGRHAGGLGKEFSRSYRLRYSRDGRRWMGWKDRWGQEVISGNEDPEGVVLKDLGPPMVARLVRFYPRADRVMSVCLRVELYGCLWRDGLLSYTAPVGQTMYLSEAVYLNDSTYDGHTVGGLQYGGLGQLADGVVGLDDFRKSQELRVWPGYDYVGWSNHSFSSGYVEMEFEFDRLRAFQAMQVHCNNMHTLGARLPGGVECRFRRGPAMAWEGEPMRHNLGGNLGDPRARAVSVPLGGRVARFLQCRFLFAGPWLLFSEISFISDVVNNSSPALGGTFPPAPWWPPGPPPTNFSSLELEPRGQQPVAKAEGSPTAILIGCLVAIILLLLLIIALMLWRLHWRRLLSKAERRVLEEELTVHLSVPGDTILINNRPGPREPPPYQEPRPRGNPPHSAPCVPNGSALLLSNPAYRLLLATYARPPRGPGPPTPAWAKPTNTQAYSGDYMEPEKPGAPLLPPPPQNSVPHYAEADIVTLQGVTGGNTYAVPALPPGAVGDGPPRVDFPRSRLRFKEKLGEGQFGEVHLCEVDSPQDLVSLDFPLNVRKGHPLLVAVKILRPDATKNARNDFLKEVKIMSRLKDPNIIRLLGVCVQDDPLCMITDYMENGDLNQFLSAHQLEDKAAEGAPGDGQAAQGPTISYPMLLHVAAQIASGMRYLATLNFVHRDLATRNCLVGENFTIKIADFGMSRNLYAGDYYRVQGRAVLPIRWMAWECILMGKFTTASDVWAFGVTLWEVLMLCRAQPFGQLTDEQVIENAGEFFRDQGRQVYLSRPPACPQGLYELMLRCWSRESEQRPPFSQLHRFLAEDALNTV
pIC50: −log10 of the molar value.
Entries annotated with measured pIC50
MEASURED_PROPERTY: pIC50

• Cc1ccc(NC(=O)c2cccc(C(C)(C)C#N)c2)cc1Oc1ccc2c(c1)CC(=O)N2 = 6.76
• Cc1ccc(NC(=O)c2cc(N3CCN(CCO)CC3)cc(C(F)(F)F)c2)cc1Oc1ccc2c(c1)CC(=O)N2 = 6.74
• Cc1ccc(NC(=O)c2ccc(OC3CCN(C)CC3)c(C(F)(F)F)c2)cc1Oc1ccc2c(c1)CC(=O)N2 = 6.94
• CCN1CCN(c2cc(C(=O)Nc3ccc(C)c(Oc4ccc5c(c4)CC(=O)N5)c3)cc(C(F)(F)F)c2)CC1 = 6.82
• CCN1CCN(Cc2ccc(NC(=O)Nc3ccc(C)c(Oc4ccc5c(c4)CC(=O)N5)c3)cc2C(F)(F)F)CC1 = 6.58
• CCN1CCN(Cc2ccc(F)c(C(=O)Nc3ccc(C)c(Oc4ccc5c(c4)CC(=O)N5)c3)c2)CC1 = 5.05
